Assay: Permeability across human Caco-2 cells
Assign a class from recorded Papp; defined classes: Low: < 5 ×10⁻⁶ cm/s; Mid: ≥ 5 ×10⁻⁶ cm/s and < 20 ×10⁻⁶ cm/s; High: ≥ 20 ×10⁻⁶ cm/s

Place this compound in its band: N#CCCCn1c(CN2C(=O)/C(=N/O)c3cccnc32)nc2ccccc21 Low

Place this compound in its band: CO/N=C1/C(=O)N(Cc2nc3ccccc3n2CCCCO)c2ncccc21 Mid

Place this compound in its band: O=C1/C(=N/OCCF)c2ccncc2N1Cc1nc2ccccc2n1CCCCO Mid

Place this compound in its band: CS(=O)(=O)c1ccc(CO/N=C2/C(=O)N(Cc3nc4ccccc4n3CCCCO)c3ncccc32)cc1 Mid

Place this compound in its band: CO/N=C1/C(=O)N(Cc2nc3ccccc3n2CCCCF)c2cnccc21 Mid

Place this compound in its band: CO/N=C1/C(=O)N(Cc2nc3ccccc3n2CCCC#N)c2ncccc21 Mid

Place this compound in its band: O=C1/C(=N/OCCF)c2ccncc2N1Cc1nc2ccccc2n1CCCCF Mid

Place this compound in its band: CS(=O)(=O)CCCn1c(CN2C(=O)/C(=N/OCc3ccccn3)c3ccncc32)nc2ccccc21 Low

Place this compound in its band: COCCCn1c(CN2C(=O)/C(=N/OCc3ccncc3)c3ccccc32)nc2ccccc21 High

Place this compound in its band: CS(=O)(=O)c1ccc(CO/N=C2/C(=O)N(Cc3nc4ccccc4n3CCCCO)c3ccccc32)cc1 Mid

Place this compound in its band: COCCCn1c(CN2C(=O)/C(=N/OCC(N)=O)c3ccccc32)nc2ccccc21 Low

Place this compound in its band: CO/N=C1/C(=O)N(Cc2nc3ccccc3n2CCCCO)c2cnccc21 Mid

Place this compound in its band: COCCCn1c(CN2C(=O)/C(=N/OCc3ccc(C(=O)N(C)C)cc3)c3ccccc32)nc2ccccc21 High

Place this compound in its band: N#CCCCn1c(CN2C(=O)/C(=N/OCC(N)=O)c3ccccc32)nc2ccccc21 Low

Place this compound in its band: CS(=O)(=O)CCCn1c(CN2C(=O)/C(=N/OCCF)c3cccnc32)nc2ccccc21 Mid

Place this compound in its band: N#CCCCn1c(CN2C(=O)/C(=N/OCCF)c3cccnc32)nc2ccccc21 Mid

Place this compound in its band: O=C1/C(=N/O)c2ccncc2N1Cc1nc2ccccc2n1CCCCF Low

Place this compound in its band: N#CCCCn1c(CN2C(=O)/C(=N/OCC(F)(F)F)c3cccnc32)nc2ccccc21 Mid

Place this compound in its band: CC(=O)OCCCCn1c(CN2C(=O)/C(=N/O)c3cccnc32)nc2ccccc21 Low

Place this compound in its band: COCCCn1c(CN2C(=O)/C(=N/OCC(F)(F)F)c3ccccc32)nc2ccccc21 High

---

Test system: Respiratory syncytial virus
Assay: Antiviral activity against RSV assessed as inhibition of viral replication by cell based assay
Type: functional, organism-based
Settings: human respiratory syncytial virus
pEC50: −log10 of the molar value.
Parameter threshold = 7. Response is MET when pEC50 meets or exceeds it, else NOT MET.

Say whether C=CCCO/N=C1/C(=O)N(Cc2nc3ccccc3n2CCCOC)c2ccccc21 shows pEC50 of 7 or more. NOT MET

Say whether COCCCn1c(CN2C(=O)/C(=N/OC(CC(O)O)C(O)O)c3ccccc32)nc2ccccc21 (centres undefined) shows pEC50 of 7 or more. MET

Say whether CC(C)CCn1c(CN2C(=O)/C(=N/Oc3ccc(Br)cc3)c3ccccc32)nc2ccccc21 shows pEC50 of 7 or more. NOT MET

Say whether COCCCn1c(CN2C(=O)/C(=N/OCCCN3CCCCC3)c3ccccc32)nc2ccccc21 shows pEC50 of 7 or more. NOT MET

Say whether COCCCn1c(CN2C(=O)/C(=N/OCCC3CCCCC3)c3ccccc32)nc2ccccc21 shows pEC50 of 7 or more. NOT MET

Say whether C=CCO/N=C1/C(=O)N(Cc2nc3ccccc3n2CCCS(C)(=O)=O)c2cnccc21 shows pEC50 of 7 or more. MET

Say whether COCCCn1c(CN2C(=O)/C(=N/OCC3CCC3)c3ccccc32)nc2ccccc21 shows pEC50 of 7 or more. NOT MET
